System: CEM cells HIV-1 protection, formazan growth assay
Experiment Summary: NCI AIDS Antiviral Assay
Measurement Context: measured here: growth of uninfected CEM cells
Reported Endpoint: log10 of IC50 (log10 of the value in µM)
A difference of one corresponds to tenfold IC50; all values are log10 with IC50 in µM.

Solved cases (8 shown):
INSERT INTO results (molecule, measured_number) VALUES
  ('O=S(=O)(Sc1ccc(Cl)cc1)c1ccc(Cl)cc1', 0.63),
  ('CC1OC(n2cc(I)c(=O)[nH]c2=O)C=CC1=O (centres undefined)', 0.33),
  ('O=c1sc2ccccc2n1CC1CS1 (centres undefined)', 1.04),
  ('CC(C)CCCC(C)C1CCC2C3CC([N+](=O)[O-])=C4CC(O)CCC4(C)C3CCC12C (centres undefined)', 2.40),
  ('COc1cc2oc(=O)cc(C)c2cc1O', 2.14),
  ('O=C(O)C1(Cc2ccccc2)Cc2cc3c(cc2C1)CCC3', 1.97),
  ('Cc1cc(S(=O)(=O)NC2=NCc3c(F)cccc3N2)c(S)cc1Cl', 1.86),
  ('O=C(CN1CCNCCN(CC(=O)N2CCCCC2)CCNCC1)N1CCCCC1', 1.02);

Q: What does the data say about its log10 of IC50? Entry: Cc1cc(=O)[nH]c2c3c(ccc12)OC(C)(C)C=C3
Ans: 0.57

Q: Which log10 of IC50 reading was recorded for the molecule CSC(=O)c1sc(SC)[n+](-c2ccccc2)c1O ?
Ans: 1.01

====

Tested on: CEM cells HIV-1 protection, formazan growth assay
Experiment Summary: NCI AIDS Antiviral Assay;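 active = compounds giving half or more protection of infected cells from virus-caused growth loss, again on retest; inactive = the rest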
Method: The ability of compounds to protect human CEM cells from HIV-1 infection is measured as a screen for new compounds capable of inhibiting the HIV virus. Five concentrations of drug were tested on uninfected and infected cells and cell growth was measured using a soluble formazan assay. […] Compounds that provided at least 50% protection were retested. Compounds that provided at least 50% protection on retest were listed as moderately active. […]
Use one of these outcomes when replying: active, inactive

INSERT INTO assay_data (compound, label_class) VALUES
  ('O=C(Nc1ccc(Cl)c(Cl)c1)OCC#CCOC(=O)Nc1ccc(Cl)c(Cl)c1', 'inactive'),
  ('Cn1c(=O)c2c(nc3n(C)c(=O)c4ccccc4n23)n(C)c1=O', 'inactive');

Q: Please let me know the test result on file for COc1ccccc1/C=C(\C#N)C(=O)O .
Ans: inactive

Q: Answer briefly: the call reported for COc1cc(C(c2c(O)c3ccccc3oc2=O)c2c(O)c3ccccc3oc2=O)cc(OC)c1OC in this assay.
Ans: inactive

Q: Give the logged outcome of this assay for the following compound: Cc1cc2nc3n(c2cc1C)C(c1c(F)cccc1F)SC3 (configuration not stated)
Ans: active

====

System: CEM cells HIV-1 protection, formazan growth assay
Experiment Summary: NCI AIDS Antiviral Assay
pEC50: −log10 of the molar value. Where a SMILES comes first, the peptide text is derived from it. The star is where a group is joined. Boc = CC(C)(C)OC(=O)*; OBn = c1ccc(CO*)cc1
Property: pEC50; scope: individual compounds

# example entries with known answers
INSERT INTO assay_data (compound, reported_endpoint, result) VALUES
  ('CC1(S)CC2C(CC1Sc1ccccc1)C2(C)C (stereo not given)', 'pEC50', '< 4.59'),
  ('CCCCN(CCCC)C1=Nc2ccccc2-n2c(nnc2C(=O)OCC)C1', 'pEC50', '< 3.70'),
  ('O=C1/C(=N\N(C(=O)c2ccccc2)c2ccccc2)c2cccc3cccc1c23', 'pEC50', '< 5.42');

Q: Item Nc1nc(N)c2ncn(C3C=CC(CO)CC3)c2n1 (stereo not given) has what recorded pEC50?
Ans: < 3.70

Q: What value of pEC50 has been recorded for this entry: Cc1cn(CC2=NC3CCCCC3N2)c(=O)[nH]c1=O (stereo not given)
Ans: < 3.70

Q: Name the recorded pEC50 for CC(C)C(NC(=O)C(Cc1ccccc1)NC(=O)OC(C)(C)C)C(=O)NCC(=O)OCc1ccccc1 (stereo not drawn) (Boc-Phe-Val-Gly-OBn; configuration not given here) .
Ans: < 3.70

Q: // query pEC50 value for entry Nc1ccc(C(=O)CC2(O)C(=O)Nc3c(Cl)cc(Cl)cc32)cc1 (stereo not given)
Ans: < 4.47

Q: For N#C/C(=C\c1ccccc1)S(=O)(=O)/C(C#N)=C/c1ccc(O)c(O)c1 , what is its reported pEC50?
Ans: < 3.70

Q: So what's the measured pEC50 for this one? N=c1c2ccccc2nc2oc3ccc(Cl)cc3n12
Ans: < 3.70

Q: Reported pEC50, compound CCCCC1Sc2cc(OC)cc3nnn(c23)C1=O (stereo not given) : ____
Ans: < 3.70

====

System: CEM cells HIV-1 protection, formazan growth assay
Experiment Summary: NCI AIDS Antiviral Assay
pEC50: −log10 of the molar value.
Reported Endpoint: pEC50

In the examples that follow, each entry is paired with its recorded pEC50.
INSERT INTO results (molecule, tested_system, result) VALUES
  ('CC1C/C(=C\c2ccc(O)c(O)c2)C(=O)/C(=C/c2ccc(O)c(O)c2)C1 (configuration not stated)', 'CEM cells HIV-1 protection, formazan growth assay', '< 3.70'),
  ('CC(/C=N/N=C(N)N)=N\N=C(N)N', 'CEM cells HIV-1 protection, formazan growth assay', '< 3.01'),
  ('O=C(c1ccco1)C1CC(c2c(O)ccc3ccccc23)=NN1 (configuration not stated)', 'CEM cells HIV-1 protection, formazan growth assay', '< 3.70');

Q: Given the entry O=S(=O)(NC1OCCCC1I)c1ccccc1 (configuration not stated) , report its measured pEC50.
Ans: < 3.70

====

System: CEM cells HIV-1 protection, formazan growth assay
Experiment Summary: NCI AIDS Antiviral Assay
Measurement Context: measured here: growth of uninfected CEM cells
Reported Endpoint: IC50 (µM)
Enter your answer as a number in µM; do not include the unit.

Previously resolved entries follow.
INSERT INTO results (cpd_smiles, output_unit, measured_number) VALUES
  ('CCOC(=O)c1ccc(NC(=S)Nc2ncccc2C)cc1', 'µM', 158),
  ('CNC(=S)Nc1sc2c(c1C#N)CCCC2', 'µM', 151),
  ('c1ccc(COc2cccc3cccnc23)cc1', 'µM', 110),
  ('COC1=C(OC)CCC(/C(C#N)=C/c2ccc(OC)c(OC)c2)=C1', 'µM', 21.4),
  ('CCN=C(NC(=O)c1ccccc1F)SCSC(=NCC)NC(=O)c1ccccc1F', 'µM', 55);

Q: Param item = CCOC(CN(C)C(=O)Nc1cccc2ccccc12)OCC ; retrieve measured IC50.
Ans: 178

Q: State the recorded IC50 for this entry: COc1cc(C(C)(C)C)c(OC(=O)/C=C/C(=O)O/C=C/[N+](=O)[O-])c(C(C)(C)C)c1
Ans: 31.6

Q: Bench note: what IC50 did COc1ccc(C[C@@H](CO)NC2=C(C#N)CCC2)cc1 show?
Ans: 64.6

====

Test system: CEM cells HIV-1 protection, formazan growth assay
Experiment Summary: NCI AIDS Antiviral Assay;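 active = compounds giving half or more protection of infected cells from virus-caused growth loss, again on retest; inactive = the rest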
Tick one outcome: active, inactive

The following molecules have reported results that may help.
INSERT INTO measurements (molecule, tested_system, label_class) VALUES
  ('COc1ccc(C(=O)/C=C/c2cc(C(C)(C)C)c(O)c(C(C)(C)C)c2)cc1', 'CEM cells HIV-1 protection, formazan growth assay', 'inactive'),
  ('CCC1(c2ccccc2)NC(=O)N(C)C1=O (stereo not given)', 'CEM cells HIV-1 protection, formazan growth assay', 'inactive'),
  ('CSc1c2c([nH]c(=O)c1C#N)-c1ccccc1CC2', 'CEM cells HIV-1 protection, formazan growth assay', 'inactive');

Q: Check the results log: what was the call for O=C1Nc2ccccc2C1S(=O)(=O)c1ccccc1 (stereo not given) ?
Ans: inactive

Q: Hi, sorry to bother you, what did the test record for Cc1ccc(NP2(=O)N(Cc3ccc(Cl)cc3)CCCN2Cc2ccc(Cl)cc2)cc1 ?
Ans: inactive

Q: # outcome recorded in this test, key = O=C(CC(=O)n1nc(-c2ccccc2)c(N=Nc2ccccc2C(=O)O)c1-c1ccccc1)Nc1ccc(Cl)cc1
Ans: inactive

====

Test system: CEM cells HIV-1 protection, formazan growth assay
Experiment Summary: NCI AIDS Antiviral Assay
Measurement Context: measured here: growth of uninfected CEM cells
Reported Endpoint: log10 of IC50 (log10 of the value in µM)
The common logarithm of IC50 in µM is what is listed.

INSERT INTO results (compound, reported_endpoint, measured_number) VALUES
  ('COC(=O)CC12C=CC3(OO1)C(C)(C)CCCC3(C)O2 (stereo unspecified)', 'log10 of IC50', 2.24),
  ('CCOC(=O)c1[nH]n(-c2ccccc2)c(=O)c1C=NC(=S)C(N)=S', 'log10 of IC50', 1.53),
  ('COc1cccc(NC(=O)/C(CS(=O)(=O)CCC(C(C)=O)C(C)=O)=N\NC(C)(C)C)c1', 'log10 of IC50', 2.74);

Q: What log10 of IC50 value was documented for this compound, CCc1c(Cc2ccccc2)n(COCCO[Si](C)(C)C(C)(C)C)c(=O)[nH]c1=O ?
Ans: 1.10

Q: Fill in: log10 of IC50 of Cc1ccc(S(=O)(=O)C2=Cc3ccccc3C2(O)c2ccccc2)cc1 (stereo unspecified) is ___
Ans: 1.33

Q: Look up log10 of IC50: O=C(NNC(=S)Nc1ccc(Cl)cc1)C12CC3CC(CC(C3)C1)C2
Ans: 0.82

Q: Record request: log10 of IC50 value, item N[C@@H](CSS[C@H](C(=O)O)[C@@H](SSC[C@H](N)C(=O)O)C(=O)O)C(=O)O
Ans: 1.55
